- Protocol: In vivo pharmacokinetic study after oral administration
- Design: species or system Sprague Dawley (SD) rats
- Setup conditions: rats, 20 mg/kg
Measurement type: AUC0–24 (ng·h/mL)
Numeric answer only, unit ng·h/mL assumed.

Input O=C(c1cc(Cc2n[nH]c(=O)c3ccccc23)ccc1F)N1CCN(C(=O)C2CC2)CC1 , output reported AUC0–24.
471

###

- Protocol: Saturation solubility of crystalline OLA in 1% (w/v) polymer solutions
- Assay type: physicochemical
- Setup conditions: crystalline OLA in 1% (w/v) HP-β-CD solution, 37 °C, read-out: saturation solubility in HP-β-CD
Measurement type: solubility at 72 h

Input O=C(c1cc(Cc2n[nH]c(=O)c3ccccc23)ccc1F)N1CCN(C(=O)C2CC2)CC1 , output reported solubility at 72 h.
~180 µg/mL
